System: tracheal specimen
Assay: Pharmacological Experiment 3: effect on contraction caused by acetylcholine in extracted tracheal specimen
Format: cell-based
Conditions: Cavia porcellus; guinea pig trachea contracted with acetylcholine (10^-6 M); relative to maximum response by papaverine (10^-4 M) as 100%; read-out: bronchodilative action (IC50)
Method: Pharmacological Experiment 3: Effect on contraction caused by acetylcholine in tracheal specimen extracted from guinea pig Male Hartley guinea pigs (body weight 260-390 g) were anesthetized by intraperitoneal administration of pentobarbital sodium (100 mg/kg) and killed by exsanguinity. […] The tension of the specimens was measured by isometric transducer (TB-611T, Nihon Koden) and recorded on a recorder (Ti-102, Tokai Irika). […]
MEASURE: IC50

[in] Return reported IC50. Input molecule: C[C@@H](N)c1ccc(C(=O)Nc2ccnc3[nH]ccc23)cc1
[out] 50 nM

* * *

tested on: thoracic aorta; assay: Pharmacological Experiment 2: vasodilating effects, relaxation of phenylephrine-contracted thoracic aorta rings; format: cell-based; conditions: Oryctolagus cuniculus; rabbit thoracic aorta rings contracted with phenylephrine (10^-6 M); contraction by phenylephrine as 100%; read-out: vasodilating action (concentration necessary for 50% relaxation, IC50)
MEASURE: pIC50
Give bare numbers, as −log10 of the molar value.

{"COMPOUND": "C[C@@H](N)c1ccc(C(=O)Nc2ccnc3[nH]ccc23)cc1N=[N+]=[N-]", "MEASURE": "pIC50", "OBSERVED": 7.52}

Let us move to another entry and its pIC50.
[in] Return reported pIC50. Input molecule: C[C@@H](N)c1ccc(C(=O)Nc2ccnc3[nH]ccc23)cc1
[out] 7.30
